Cited source for all entries: the supplement of paper PMC5998384

tested on: HeLa Kyoto; assay: solubility in G1/S (NP-40 vs SDS abundance) (log2 ratio); higher = more soluble; settings: cell cycle stage: G1/S
Returns one of 1.0 or 0.0; 1.0 when solubility in G1/S (log2) is >= 0.2.

# Residue sequence, Label
records = [
    ("MGQCVTKCKNPSSTLGSKNGDREPSNKSHSRRGAGHREEQVPPCGKPGGDILVNGTKKAEAATEACQLPTSSGDAGRESKSNAEESSLQRLEELFRRYKDEREDAILEEGMERFCNDLCVDPTEFRVLLLAWKFQAATMCKFTRKEFFDGCKAISADSIDGICARFPSLLTEAKQEDKFKDLYRFTFQFGLDSEEGQRSLHREIAIALWKLVFTQNNPPVLDQWLNFLTENPSGIKGISRDTWNMFLNFTQVIGPDLSNYSEDEAWPSLFDTFVEWEMERRKREGEGRGALSSGPEGLCPEEQT [DCUN1D3]", 0.0),
    ("MVGPAPRRRLRPLAALALVLALAPGLPTARAGQTPRPAERGPPVRLFTEEELARYGGEEEDQPIYLAVKGVVFDVTSGKEFYGRGAPYNALTGKDSTRGVAKMSLDPADLTHDTTGLTAKELEALDEVFTKVYKAKYPIVGYTARRILNEDGSPNLDFKPEDQPHFDIKDEF [NENF]", 1.0),
    ("MSKSKDDAPHELESQFILRLPPEYASTVRRAVQSGHVNLKDRLTIELHPDGRHGIVRVDRVPLASKLVDLPCVMESLKTIDKKTFYKTADICQMLVSTVDGDLYPPVEEPVASTDPKASKKKDKDKEKKFIWNHGITLPLKNVRKRRFRKTAKKKYIESPDVEKEVKRLLSTDAEAVSTRWEIIAEDETKEAENQGLDISSPGMSGHRQGHDSLEHDELREIFNDLSSSSEDEDETQHQDEEDINIIDTEEDLERQLQDKLNESDEQHQENEGTNQLVMGIQKQIDNMKGKLQETQDRAKRQEDLIMKVENLALKNRFQAVLDELKQKEDREKEQLSSLQEELESLLEK [TAF7]", 1.0),
    ("MASERLPNRPACLLVASGAAEGVSAQSFLHCFTMASTAFNLQVATPGGKAMEFVDVTESNARWVQDFRLKAYASPAKLESIDGARYHALLIPSCPGALTDLASSGSLARILQHFHSESKPICAVGHGVAALCCATNEDRSWVFDSYSLTGPSVCELVRAPGFARLPLVVEDFVKDSGACFSASEPDAVHVVLDRHLVTGQNASSTVPAVQNLLFLCGSRK [PDDC1]", 0.0),
    ("MAEGNHRKKPLKVLESLGKDFLTGVLDNLVEQNVLNWKEEEKKKYYDAKTEDKVRVMADSMQEKQRMAGQMLLQTFFNIDQISPNKKAHPNMEAGPPESGESTDALKLCPHEEFLRLCKERAEEIYPIKERNNRTRLALIICNTEFDHLPPRNGADFDITGMKELLEGLDYSVDVEENLTARDMESALRAFATRPEHKSSDSTFLVLMSHGILEGICGTVHDEKKPDVLLYDTIFQIFNNRNCLSLKDKPKVIIVQACRGANRGELWVRDSPASLEVASSQSSENLEEDAVYKTHVEKDFIAFCSSTPHNVSWRDSTMGSIFITQLITCFQKYSWCCHLEEVFRKVQQSFETPRAKAQMPTIERLSMTRYFYLFPGN [CASP4]", 0.0),
    ("MAVTGWLESLRTAQKTALLQDGRRKVHYLFPDGKEMAEEYDEKTSELLVRKWRVKSALGAMGQWQLEVGDPAPLGAGNLGPELIKESNANPIFMRKDTKMSFQWRIRNLPYPKDVYSVSVDQKERCIIVRTTNKKYYKKFSIPDLDRHQLPLDDALLSFAHANCTLIISYQKPKEVVVAESELQKELKKVKTAHSNDGDCKTQ [DPCD]", 1.0),
    ("MSGLSGPPARRGPFPLALLLLFLLGPRLVLAISFHLPINSRKCLREEIHKDLLVTGAYEISDQSGGAGGLRSHLKITDSAGHILYSKEDATKGKFAFTTEDYDMFEVCFESKGTGRIPDQLVILDMKHGVEAKNYEEIAKVEKLKPLEVELRRLEDLSESIVNDFAYMKKREEEMRDTNESTNTRVLYFSIFSMFCLIGLATWQVFYLRRFFKAKKLIE [TMED10]", 0.0),
    ("MEVHGKPKASPSCSSPTRDSSGVPVSKELLTAGSDGRGGIWDRLLINSQPKSRKTSTLQTVRIERSPLLDQVQTFLPQMARANEKLRKEMAAAPPGRFNIENIDGPHSKVIQMDVALFEMNQSDSKEVDSSEESSQDSSENSSESEDEDDSIPSEVTIDNIKLPNSEGGKGKIEVLDSPASKKKK [C12ORF45]", 0.0),
    ("MGSRDHLFKVLVVGDAAVGKTSLVQRYSQDSFSKHYKSTVGVDFALKVLQWSDYEIVRLQLWDIAGQERFTSMTRLYYRDASACVIMFDVTNATTFSNSQRWKQDLDSKLTLPNGEPVPCLLLANKCDLSPWAVSRDQIDRFSKENGFTGWTETSVKENKNINEAMRVLIEKMMRNSTEDIMSLSTQGDYINLQTKSSSWSCC [RAB29]", 0.0),
    ("MNGRVDYLVTEEEINLTRGPSGLGFNIVGGTDQQYVSNDSGIYVSRIKENGAAALDGRLQEGDKILSVNGQDLKNLLHQDAVDLFRNAGYAVSLRVQHRLQVQNGPIGHRGEGDPSGIPIFMVLVPVFALTMVAAWAFMRYRQQL [SYNJ2BP]", 0.0),
    ("MGRRSSDTEEESRSKRKKKHRRRSSSSSSSDSRTYSRKKGGRKSRSKSRSWSRDLQPRSHSYDRRRRHRSSSSSSYGSRRKRSRSRSRGRGKSYRVQRSRSKSRTRRSRSRPRLRSHSRSSERSSHRRTRSRSRDRERRKGRDKEKREKEKDKGKDKELHNIKRGESGNIKAGLEHLPPAEQAKARLQLVLEAAAKADEALKAKERNEEEAKRRKEEDQATLVEQVKRVKEIEAIESDSFVQQTFRSSKEVKKSVEPSEVKQATSTSGPASAVADPPSTEKEIDPTSIPTAIKYQDDNSLAHPNLFIEKADAEEKWFKRLIALRQERLMGSPVA [RSRC1]", 0.0),
]

---

Entries and their melting temperature
test system: HeLa Kyoto; test: melting temperature (median over replicates), in situ; higher = more thermally stable; details: cell cycle stage: G1/S

# Residue sequence, melting temperature, °C
records = [
    ("MAQPPPDVEGDDCLPAYRHLFCPDLLRDKVAFITGGGSGIGFRIAEIFMRHGCHTVIASRSLPRVLTAARKLAGATGRRCLPLSMDVRAPPAVMAAVDQALKEFGRIDILINCAAGNFLCPAGALSFNAFKTVMDIDTSGTFNVSRVLYEKFFRDHGGVIVNITATLGNRGQALQVHAGSAKAAVDAMTRHLAVEWGPQNIRVNSLAPGPISGTEGLRRLGGPQASLSTKVTASPLQRLGNKTEIAHSVLYLASPLASYVTGAVLVADGGAWLTFPNGVKGLPDFASFSAKL [DECR2]", 51.9),
    ("MAKGDPKKPKGKMSAYAFFVQTCREEHKKKNPEVPVNFAEFSKKCSERWKTMSGKEKSKFDEMAKADKVRYDREMKDYGPAKGGKKKKDPNAPKRPPSGFFLFCSEFRPKIKSTNPGISIGDVAKKLGEMWNNLNDSEKQPYITKAAKLKEKYEKDVADYKSKGKFDGAKGPAKVARKKVEEEDEEEEEEEEEEEEEEDE [HMGB3]", 57),
    ("MAAPALRLCHIAFHVPAGQPLARNLQRLFGFQPLASREVDGWRQLALRSGDAVFLVNEGAGSGEPLYGLDPRHAVPSATNLCFDVADAGAATRELAALGCSVPVPPVRVRDAQGAATYAVVSSPAGILSLTLLERAGYRGPFLPGFRPVSSAPGPGWVSRVDHLTLACTPGSSPTLLRWFHDCLGFCHLPLSPGEDPELGLEMTAGFGLGGLRLTALQAQPGSIVPTLVLAESLPGATTRQDQVEQFLARHKGPGLQHVGLYTPNIVEATEGVATAGGQFLAPPGAYYQQPGKERQIRAAGHEPHLLARQGILLDGDKGKFLLQVFTKSLFTEDTFFLELIQRQGATGFGQGNIRALWQSVQEQSARSQEA [HPDL]", 53.9),
    ("MAASEAAVVSSPSLKTDTSPVLETAGTVAAMAATPSARAAAAVVAAAARTGSEARVSKAALATKLLSLSGVFAVHKPKGPTSAELLNRLKEKLLAEAGMPSPEWTKRKKQTLKIGHGGTLDSAARGVLVVGIGSGTKMLTSMLSGSKRYTAIGELGKATDTLDSTGRVTEEKPYDKITQEDIEGILQKFTGNIMQVPPLYSALKKDGQRLSTLMKRGEVVEAKPARPVTVYSISLQKFQPPFFTLDVECGGGFYIRSLVSDIGKELSSCANVLELTRTKQGPFTLEEHALPEDKWTIDDIAQSLEHCSSLFPAELALKKSKPESNEQVLSCEYITLNEPKREDDVIKTC [TRUB1]", 50.2),
    ("MLSSTAMYSAPGRDLGMEPHRAAGPLQLRFSPYVFNGGTILAIAGEDFAIVASDTRLSEGFSIHTRDSPKCYKLTDKTVIGCSGFHGDCLTLTKIIEARLKMYKHSNNKAMTTGAIAAMLSTILYSRRFFPYYVYNIIGGLDEEGKGAVYSFDPVGSYQRDSFKAGGSASAMLQPLLDNQVGFKNMQNVEHVPLSLDRAMRLVKDVFISAAERDVYTGDALRICIVTKEGIREETVSLRKD [PSMB1]", 57),
    ("MARENGESSSSWKKQAEDIKKIFEFKETLGTGAFSEVVLAEEKATGKLFAVKCIPKKALKGKESSIENEIAVLRKIKHENIVALEDIYESPNHLYLVMQLVSGGELFDRIVEKGFYTEKDASTLIRQVLDAVYYLHRMGIVHRDLKPENLLYYSQDEESKIMISDFGLSKMEGKGDVMSTACGTPGYVAPEVLAQKPYSKAVDCWSIGVIAYILLCGYPPFYDENDSKLFEQILKAEYEFDSPYWDDISDSAKDFIRNLMEKDPNKRYTCEQAARHPWIAGDTALNKNIHESVSAQIRKNFAKSKWRQAFNATAVVRHMRKLHLGSSLDSSNASVSSSLSLASQKDCLAPSTLCSFISSSSGVSGVGAERRPRPTTVTAVHSGSK [CAMK1D]", 49.8),
    ("MLSRVVLSAAATAAPSLKNAAFLGPGVLQATRTFHTGQPHLVPVPPLPEYGGKVRYGLIPEEFFQFLYPKTGVTGPYVLGTGLILYALSKEIYVISAETFTALSVLGVMVYGIKKYGPFVADFADKLNEQKLAQLEEAKQASIQHIQNAIDTEKSQQALVQKRHYLFDVQRNNIAMALEVTYRERLYRVYKEVKNRLDYHISVQNMMRRKEQEHMINWVEKHVVQSISTQQEKETIAKCIADLKLLAKKAQAQPVM [ATP5F1]", 52.8),
    ("MAGSYPEGAPAILADKRQQFGSRFLSDPARVFHHNAWDNVEWSEEQAAAAERKVQENSIQRVCQEKQVDYEINAHKYWNDFYKIHENGFFKDRHWLFTEFPELAPSQNQNHLKDWFLENKSEVCECRNNEDGPGLIMEEQHKCSSKSLEHKTQTPPVEENVTQKISDLEICADEFPGSSATYRILEVGCGVGNTVFPILQTNNDPGLFVYCCDFSSTAIELVQTNSEYDPSRCFAFVHDLCDEEKSYPVPKGSLDIIILIFVLSAVVPDKMQKAINRLSRLLKPGGMVLLRDYGRYDMAQLRFKKGQCLSGNFYVRGDGTRVYFFTQEELDTLFTTAGLEKVQNLVDRRLQVNRGKQLTMYRVWIQCKYCKPLLSSTS [METTL2B]", 48.6),
    ("MAALTLRGVRELLKRVDLATVPRRHRYKKKWAATEPKFPAVRLALQNFDMTYSVQFGDLWPSIRVSLLSEQKYGALVNNFAAWDHVSAKLEQLSAKDFVNEAISHWELQSEGGQSAAPSPASWACSPNLRCFTFDRGDISRFPPARPGSLGVMEYYLMDAASLLPVLALGLQPGDIVLDLCAAPGGKTLALLQTGCCRNLAANDLSPSRIARLQKILHSYVPEEIRDGNQVRVTSWDGRKWGELEGDTYDRVLVDVPCTTDRHSLHEEENNIFKRSRKKERQILPVLQVQLLAAGLLATKPGGHVVYSTCSLSHLQNEYVVQGAIELLANQYSIQVQVEDLTHFRRVFMDTFCFFSSCQVGELVIPNLMANFGPMYFCKMRRLT [NSUN4]", 51.7),
]
